# Organism: Mus musculus
# ASSAY_SUMMARY: In Vitro evaluation for the potency for inhibiting the contraction of the electrically stimulated isolated mouse vas deferens
# Format: functional
The reader will find reported EC50 values listed item by item below.
OBSERVED_PROPERTY: EC50 (nM)

structure_smiles_string=Cc1cc(O)cc(C)c1C[C@H](N)C(=O)N[C@H]1C(=O)NCC(=O)N[C@@H](Cc2ccccc2)C(=O)N[C@@H](C(=O)O)C(C)(C)SSC1(C)C observed_property=EC50 reading=0.15
structure_smiles_string=CC1(C)SSC(C)(C)[C@@H](NC(=O)[C@@H](N)Cc2ccc(O)cc2)C(=O)NCC(=O)N[C@@H](Cc2ccccc2)C(=O)N[C@H]1C(=O)O observed_property=EC50 reading=12.9
